# Tested on: PC-3 prostate
# method_notes: NCI tumour cell line growth inhibition, 48 h; in the data active = GI50 below about 0.43 µM; inactive = the rest
Would you mind answering with one of these outcomes? active, inactive

>  <line_notation>
COc1cc2c3c(n(C)c(=O)c2cc1OC)-c1cc2c(cc1/C3=C\CN)OCO2

>  <cat>
inactive

$$$$
>  <line_notation>
COc1cc2c(cc1OCCCNC(=O)c1cccc3c(=O)c4ccccc4[nH]c13)N=C[C@@H]1CCCN1C2=O

>  <cat>
active

$$$$
>  <line_notation>
C=C(C)[C@@H]1CC[C@]2(C)[C@H](CC=C3[C@@H]4CC(C)(C)CC[C@]4(C(N)=O)CC[C@]32C)[C@@]1(C)CCC#N

>  <cat>
inactive

$$$$

Continue with the next molecule.
Q: Record request — test call for Nc1nc(/C=C\c2ccc([N+](=O)[O-])s2)nc(N2CCCC2)n1
Ans: inactive
